Values were extracted from the supplement of paper PMC10724198.

Tested on: Saccharomyces cerevisiae
Assay: protein stability index of tFT-peptide fusion (C-terminal peptide) (PSI (0-1 scale)); higher = more stable (slower turnover);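 further: PSI is a weighted mean of sequencing reads over stability bins, variants kept only with over 10 reads, mCherry proximal and sfGFP distal, peptide attached via GGGS linker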
Settings: genetic background: wild type; temperature: 30 C
Rule: protein stability index of 0.6 or more gives t; anything lower gives f.

PPPPRLPLDPPL = t
STPFALVFLPFP = t
FNMLFVVRLLYM = f
LGMGWGSGLERW = t
GGCGLGGVLEVG = t
QDSETYSNEAGL = t
LLGKVAYFFMFG = t
RCIFYHSPVLCL = f

Data request: Hi team, for PPLPLLPPLPPP , is the recorded protein stability index at or above 0.6?
Data returned: t

====

Below, each entry is listed alongside its reported protein stability index.
System: Saccharomyces cerevisiae
Assay: protein stability index of tFT-peptide fusion (C-terminal peptide) (PSI (0-1 scale)); higher = more stable (slower turnover)
Conditions: genetic background: cdc53-1; temperature: 37 C
The response must contain the number and no unit.

Here's what some known entries look like.
LLRFFPCFLGVN = 0.696
WCAGCLGWWLQS = 0.803
RRLAVWCDFRSL = 0.752
FFRLFAPLLVVL = 0.0677
LPLCGLLLFLFF = 0.539

Data request: I would be grateful if you could share the reported protein stability index for VTFCFLFVWFLV .
Data returned: 0.378

Data request: Further, for RSSGHLLDGRAF ?
Data returned: 0.739

Data request: Try this sequence too: GGVWSAFAVWVC
Data returned: 0.338

Data request: Would you mind doing GLSWRLVWVVII as well?
Data returned: 0.0599

Data request: Moving on to the next sequence: SVLVWVFGLFVI
Data returned: 0.525

Data request: Try this sequence too: VVISRVLAIRLL
Data returned: 0.61

Data request: Also need FCIIVFYIFVGI , thanks.
Data returned: 0.506

Data request: How about this sequence: GVVCWLVVTGFL
Data returned: 0.48

Data request: Please do the same for ICQLLKFPLFWC as well.
Data returned: 0.567

Data request: What about this sequence? YIRINNIYWKKS
Data returned: 0.755

Data request: Again, but for SVFVFFGFIDFL
Data returned: 0.589

Data request: Also, VLGLYSLLLSFF please.
Data returned: 0.663

Data request: Likewise for FGCLFILRCSFL ?
Data returned: 0.487

Data request: Try DVHPLFYCIPVY next.
Data returned: 0.0286

Data request: Try the sequence SYLPSHVYIFLL
Data returned: 0.309

Data request: Then LLLFTPFYLLLR ?
Data returned: 0.0767

Data request: Try WFFTDIVMLVRV next.
Data returned: 0.12

Data request: Subsequent entry: CLLGMKSRTILV
Data returned: 0.33

Data request: Also check VFSRVLSVLLSA
Data returned: 0.514

Data request: Continue with VFWLLVAVLRYW
Data returned: 0.247

Data request: What about SPCFLDPPRLIS ?
Data returned: 0.728

Data request: Next sequence: FLIYMFRHCFFH
Data returned: 0.626

Data request: Query VLICFSVFSWVV next
Data returned: 0.0313

Data request: Would you mind doing ARCKRSLSGGIG as well?
Data returned: 0.579

====

Test system: Saccharomyces cerevisiae
Assay: protein stability index of tFT-peptide fusion (C-terminal peptide) (PSI (0-1 scale)); higher = more stable (slower turnover)
Settings: genetic background: cdc53-1; temperature: 37 C
observable: protein stability index
Output spec: single numeric token, no unit.

Field: example entries. Status: answers known.
GGFLLRGLFLFL = 0.652
CSSIFSSSDCYA = 0.758

Data request: So what protein stability index did VVFFFKFFLLRL get with Saccharomyces cerevisiae?
Data returned: 0.224

Data request: Try this sequence next: WFWVAVGVVGGG
Data returned: 0.534

Data request: Next up: LPLQPPPPVCLP
Data returned: 0.716

Data request: Consider next the sequence FCVLLFFFPLII in the same way.
Data returned: 0.293

Data request: Another sequence to check: WHLLRFETQMFC
Data returned: 0.709

Data request: Please give the result for FPRQFVYLPLLF too.
Data returned: 0.709

Data request: What about FWGRAGVWRLKG ?
Data returned: 0.759

Data request: One more sequence: LISRLVLVFVIP
Data returned: 0.443
